The values you see were collected from patent US20220096485A1.

For each record, write down the corresponding pKd.
To interpret pKd, take it as minus log10 of a concentration measured in moles per litre.

Q: Find pKd (Abelson kinase 2 (ABL2) (Homo sapiens)) for the entry N#Cc1cccc(Nc2ncc3cc(-c4c(Cl)cccc4Cl)c(=O)oc3n2)c1 [Compound 12d]
A: 8.35

Q: Test system Abelson kinase 2 (ABL2) (Homo sapiens); read-out pKd; what value for COc1cccc(Nc2ncc3cc(-c4c(Cl)cccc4Cl)c(=O)oc3n2)c1 [Compound 12e] ?
A: 8.89

Q: Form field - read-out: pKd; system: Abelson kinase 2 (ABL2) (Homo sapiens); submitted item: CSc1cccc(Nc2ncc3cc(-c4c(Cl)cccc4Cl)c(=O)oc3n2)c1 [Compound 12b]
Sequence (P42684 whole entry): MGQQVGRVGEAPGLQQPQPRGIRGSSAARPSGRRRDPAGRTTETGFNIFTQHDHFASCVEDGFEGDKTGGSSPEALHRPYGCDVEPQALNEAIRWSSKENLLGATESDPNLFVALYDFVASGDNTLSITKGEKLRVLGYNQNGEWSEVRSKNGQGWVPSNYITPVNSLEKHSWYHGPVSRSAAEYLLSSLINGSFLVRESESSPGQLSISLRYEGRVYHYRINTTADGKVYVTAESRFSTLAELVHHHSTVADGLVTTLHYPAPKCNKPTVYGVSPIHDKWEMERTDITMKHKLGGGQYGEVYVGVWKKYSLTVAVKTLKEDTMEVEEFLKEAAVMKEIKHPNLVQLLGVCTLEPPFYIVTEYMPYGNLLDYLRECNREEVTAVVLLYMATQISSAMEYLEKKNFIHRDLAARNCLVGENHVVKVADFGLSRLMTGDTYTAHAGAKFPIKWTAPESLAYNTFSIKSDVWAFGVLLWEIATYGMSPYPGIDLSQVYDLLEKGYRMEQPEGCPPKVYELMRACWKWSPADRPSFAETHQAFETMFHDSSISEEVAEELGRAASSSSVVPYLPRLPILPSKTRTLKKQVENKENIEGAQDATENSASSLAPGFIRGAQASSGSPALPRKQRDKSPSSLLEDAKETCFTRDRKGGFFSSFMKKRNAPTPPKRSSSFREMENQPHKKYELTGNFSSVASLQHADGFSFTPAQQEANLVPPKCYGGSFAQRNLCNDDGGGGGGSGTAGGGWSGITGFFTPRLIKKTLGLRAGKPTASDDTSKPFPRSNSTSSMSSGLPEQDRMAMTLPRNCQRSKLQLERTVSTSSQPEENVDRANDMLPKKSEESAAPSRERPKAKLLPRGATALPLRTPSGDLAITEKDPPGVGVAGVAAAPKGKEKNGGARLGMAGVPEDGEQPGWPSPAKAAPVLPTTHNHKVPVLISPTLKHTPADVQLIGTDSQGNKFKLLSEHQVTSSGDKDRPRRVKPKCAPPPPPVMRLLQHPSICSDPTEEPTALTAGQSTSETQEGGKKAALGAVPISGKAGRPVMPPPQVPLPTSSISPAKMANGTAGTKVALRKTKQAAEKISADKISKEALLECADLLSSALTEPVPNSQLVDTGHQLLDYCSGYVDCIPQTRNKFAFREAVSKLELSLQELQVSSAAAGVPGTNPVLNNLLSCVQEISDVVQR
A: 8.42

Q: Requested read-out pKd, target or system Abelson kinase 2 (ABL2) (Homo sapiens), entry Cc1cc(Nc2ncc3cc(-c4c(Cl)cccc4Cl)c(=O)oc3n2)ccc1F [Compound 12a]
A: 8.41

Q: Field: pKd (Abelson kinase 2 (ABL2) (Homo sapiens)). Entry: CC(=O)Nc1cccc(Nc2ncc3cc(-c4c(C)cccc4C)c(=O)oc3n2)c1 [Compound 19b]
A: 8.89

Q: // fetch Abelson kinase 2 (ABL2) (Homo sapiens) pKd for CN(C)c1ccc(Nc2ncc3cc(-c4c(Cl)cccc4Cl)c(=O)oc3n2)cc1 [Compound 12f]
A: 8.16

Q: Give Abelson kinase 2 (ABL2) (Homo sapiens) pKd for Nc1cccc(Nc2ncc3cc(-c4c(Cl)cccc4Cl)c(=O)oc3n2)c1 [Compound 12c]
A: 8.96

Q: Identify the measured pKd of Cc1cccc(C)c1-c1cc2cnc(Nc3cccc(N)c3)nc2oc1=O [Compound 19a] for Abelson kinase 2 (ABL2) (Homo sapiens).
A: 8.89

Q: Item CC(=O)Nc1cccc(Nc2ncc3cc(-c4c(Cl)cccc4Cl)c(=O)oc3n2)c1 [Compound 12g] with Abelson kinase 2 (ABL2) (Homo sapiens) - pKd?
A: 8.96

Q: Lab request: please report pKd under test system Abelson kinase 2 (ABL2) (Homo sapiens) for Nc1cccc(Nc2ncc3cc(-c4ccccc4)c(=O)oc3n2)c1 [Compound 19c]
A: 6.89
